Measured values drawn from ChEMBL document CHEMBL3102847 for this set.

- measured-on: Sigma non-opioid intracellular receptor 1 (Homo sapiens, UniProt Q99720)
- Sequence (Q99720 whole entry): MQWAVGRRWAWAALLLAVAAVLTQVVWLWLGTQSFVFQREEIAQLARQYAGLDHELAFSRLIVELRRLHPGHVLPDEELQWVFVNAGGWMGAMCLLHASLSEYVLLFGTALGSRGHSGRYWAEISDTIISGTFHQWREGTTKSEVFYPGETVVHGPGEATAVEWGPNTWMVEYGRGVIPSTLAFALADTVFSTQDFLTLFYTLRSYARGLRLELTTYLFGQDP
- assay-details: Displacement of [125I]N-IACoc from sigma 1 receptor (unknown origin)
test-readout: pKd
# log scale: pKd equals minus log10 of the concentration in mol/L

Incoming: Could you share which pKd value was measured for `COC(=O)[C@H]1[C@@H](OC(=O)c2ccccc2)C[C@@H]2CC[C@H]1N2CCc1ccc(N=[N+]=[N-])c([125I])c1` ?
Outgoing: 7.96

###

- measured-on: Sigma non-opioid intracellular receptor 1 (Rattus norvegicus, UniProt Q9R0C9)
- Sequence (Q9R0C9 whole entry): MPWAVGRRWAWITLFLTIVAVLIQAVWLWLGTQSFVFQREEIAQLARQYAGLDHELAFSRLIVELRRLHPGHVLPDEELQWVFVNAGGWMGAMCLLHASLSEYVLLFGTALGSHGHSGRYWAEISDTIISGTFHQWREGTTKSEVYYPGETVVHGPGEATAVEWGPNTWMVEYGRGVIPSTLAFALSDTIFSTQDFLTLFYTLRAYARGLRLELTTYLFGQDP
- assay-details: Displacement of [3H]-(+)-pentazocine from sigma 1 receptor in rat liver homogenates
- Assay type: tissue-based
test-readout: Ki (µM)
Enter your answer as a number in µM; do not include the unit.

Incoming: Could you share which Ki value was measured for `CN(C)CCc1c[nH]c2ccccc12` ?
Outgoing: 15.4
